Tested on: HepG2
Assay: Cytotoxicity against human HepG2 cells assessed as reduction in cell viability at 1 to 100 uM measured after 48 hrs by MTT assay
Assay type: cell-based
Conditions: hepg2, 48 h, dose 1-100 µM
endpointLabel: Activity

1) Clc1ccc(Nc2cc(N3CCNCC3)nc3ccnn23)c(Cl)c1	Toxic
2) Clc1ccc(CCNc2cc(N3CCNCC3)nc3ccnn23)c(Cl)c1	Toxic
3) N[C@@H]1CCCN(c2cc(NCc3ccccc3)n3nccc3n2)C1	Toxic

----------
Catalogue of pIC50 values
Target: Dipeptidyl peptidase 4 (Homo sapiens, UniProt P27487)
Sequence (P27487 whole entry): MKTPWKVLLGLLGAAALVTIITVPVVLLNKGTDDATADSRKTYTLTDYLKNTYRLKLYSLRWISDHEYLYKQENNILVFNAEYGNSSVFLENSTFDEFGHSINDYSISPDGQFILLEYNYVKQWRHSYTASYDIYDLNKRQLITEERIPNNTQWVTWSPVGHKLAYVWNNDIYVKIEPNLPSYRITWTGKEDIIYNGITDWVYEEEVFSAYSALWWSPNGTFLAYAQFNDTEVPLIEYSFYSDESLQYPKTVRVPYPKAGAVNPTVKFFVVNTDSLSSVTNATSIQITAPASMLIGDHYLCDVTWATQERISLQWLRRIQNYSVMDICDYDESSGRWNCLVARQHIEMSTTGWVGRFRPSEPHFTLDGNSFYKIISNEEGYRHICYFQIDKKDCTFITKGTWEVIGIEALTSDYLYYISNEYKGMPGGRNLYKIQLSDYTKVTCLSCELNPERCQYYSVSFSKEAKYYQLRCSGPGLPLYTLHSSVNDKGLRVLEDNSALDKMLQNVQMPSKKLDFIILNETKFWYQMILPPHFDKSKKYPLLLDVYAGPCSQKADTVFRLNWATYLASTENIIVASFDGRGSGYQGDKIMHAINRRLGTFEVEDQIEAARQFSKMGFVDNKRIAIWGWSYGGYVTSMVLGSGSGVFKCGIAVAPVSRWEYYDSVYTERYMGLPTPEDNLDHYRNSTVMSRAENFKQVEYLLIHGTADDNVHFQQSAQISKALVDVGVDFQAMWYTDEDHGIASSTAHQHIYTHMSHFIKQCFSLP
Assay: Inhibition of DPP4 in human Caco-2 cells using AP-AFC as substrate preincubated with enzyme for 10 mins followed by substrate addition and measured after 10 mins by fluorescence based analysis
pIC50: −log10 of the molar value.
endpointLabel: pIC50

1. CC(C)(C)Nc1cc(NC(C)(C)C)n2nccc2n1	< 4.00
2. CN(c1ccccc1)c1cc(N2CCC[C@@H](N)C2)nc2ccnn12	< 4.00
3. c1cc2nc(N3CCOCC3)cc(Nc3cc[nH]n3)n2n1	< 4.00
